# protocolNotes: Microsomal stability (rat)
# Type: in vitro ADME
# assayContext: rat microsomes

# molecule, Microsomal Stability (rat) T1/2
data = [
    ("CN(C)Cc1ccc(-c2ccc3ncc4ccc(=O)n(-c5ccc(C(=O)N(C)C)cc5)c4c3c2)cc1 [Compound 166]", ">30.0 min"),
    ("O=C1NCc2cc(-n3c(=O)ccc4cnc5ccc(-c6ccc(CCN7CCOCC7)cc6)cc5c43)ccc21 [Compound 372]", ">30 min"),
    ("CN(C)C(=O)c1cc(-c2ccc3ncc4ccc(=O)n(-c5ccc(S(C)(=O)=O)cc5)c4c3c2)ccc1Cl [Compound 50]", "3 min"),
    ("CS(=O)(=O)c1ccc(-n2c(=O)ccc3cnc4ccc(-c5ccc(Cl)cc5)cc4c32)cc1N1CCOCC1 [Compound 58]", "13.5 min"),
]

###

# protocolNotes: Solubility at pH 7.4
# Type: physicochemical
# Sol @ pH 7.4 per record follows
measuredParameter: Sol @ pH 7.4

# molecule, measuredParameter, observed
data = [
    ("O=C(c1ccc(-n2c(=O)ccc3cnc4ccc(-c5ccc(CCN6CCCC6)cc5)cc4c32)cc1)N1CCOCC1 [Compound 217]", "Sol @ pH 7.4", ">83 ug/mL"),
    ("CN(C)C(=O)c1ccc(-n2c(=O)ccc3cnc4ccc(-c5ccc(Cl)cc5)cc4c32)cc1 [Compound 100]", "Sol @ pH 7.4", "<1.0 ug/mL"),
    ("COC(=O)c1cc(-c2ccc3ncc4ccc(=O)n(-c5ccc(C(=O)N6CCOCC6)cc5)c4c3c2)ccc1Cl [Compound 152]", "Sol @ pH 7.4", "<1.0 ug/mL"),
    ("Cc1cc(C(=O)NCCCN2CCC(C)CC2)ccc1-n1c(=O)ccc2cnc3ccc(-c4ccc(Cl)cc4)cc3c21 [Compound 283]", "Sol @ pH 7.4", "70.7 ug/mL"),
    ("Cc1cc(C(=O)NCCCN(CCO)CCO)ccc1-n1c(=O)ccc2cnc3ccc(-c4ccc(Cl)cc4)cc3c21 [Compound 281]", "Sol @ pH 7.4", ">86 ug/mL"),
    ("Cn1c(=O)n(-c2cccc(C#N)c2)c2c3cc(-c4ccc(Cl)c(O)c4)ccc3ncc21 [Compound 441]", "Sol @ pH 7.4", "<1.0 ug/mL"),
    ("Nc1cc(-c2ccc3ncc4ccc(=O)n(-c5ccc(C(=O)NC6CC6)cc5)c4c3c2)ccc1Cl [Compound 238]", "Sol @ pH 7.4", "<1 ug/mL"),
    ("O=C(c1ccc(-n2c(=O)ccc3cnc4ccc(-c5cccc(CCN6CCCC6)c5)cc4c32)cc1)N1CCOCC1 [Compound 211]", "Sol @ pH 7.4", ">83 ug/mL"),
    ("O=C(NC1CC1)c1ccc(-n2c(=O)ccc3cnc4ccc(-c5ccc(F)c(O)c5)cc4c32)cc1 [Compound 203]", "Sol @ pH 7.4", "1.2 ug/mL"),
    ("NCCc1ccc(-c2ccc3ncc4ccc(=O)n(-c5ccc(C(=O)NC6CC6)cc5)c4c3c2)cc1 [Compound 240]", "Sol @ pH 7.4", "31.6 ug/mL"),
    ("CN1CCN(C(=O)c2ccc(-n3c(=O)ccc4cnc5ccc(-c6ccc(Cl)cc6)cc5c43)cc2)CC1 [Compound 102]", "Sol @ pH 7.4", "7.5 ug/mL"),
    ("N#Cc1cccc(-n2c(=O)[nH]c3cnc4ccc(-c5ccc(Cl)cc5)cc4c32)c1 [Compound 397]", "Sol @ pH 7.4", "<1.0 ug/mL"),
    ("O=C(c1ccc(-n2c(=O)ccc3cnc4ccc(-c5ccc(Cl)cc5)cc4c32)cc1)N1CCC(O)CC1 [Compound 302]", "Sol @ pH 7.4", "<1 ug/mL"),
    ("Cc1cc(C(=O)NC2CCN(CCO)CC2)ccc1-n1c(=O)ccc2cnc3ccc(-c4ccc(Cl)cc4)cc3c21 [Compound 279]", "Sol @ pH 7.4", ">84 ug/mL"),
    ("Cc1ccc(C#N)cc1-n1c(=O)n(C)c2cnc3ccc(-c4ccc(F)c(C#N)c4)cc3c21 [Compound 408]", "Sol @ pH 7.4", "0 ug/mL"),
]

###

# Sol @ pH 7.4 per record follows
# protocolNotes: Solubility at pH 7.4
# Format: physicochemical

# smilesText, Sol @ pH 7.4
rows = [
    ("CN(C)C(=O)c1cc(-c2ccc3ncc4ccc(=O)n(-c5ccc(C(=O)N6CCOCC6)cc5)c4c3c2)ccc1Cl", "63 ug/mL"),
    ("O=Cc1ccc(-c2ccc3ncc4ccc(=O)n(-c5ccc(C(=O)N6CCOCC6)cc5)c4c3c2)cn1", ">72.0 ug/mL"),
    ("O=C(NCC(F)(F)F)c1ccc(-n2c(=O)ccc3cnc4ccc(-c5ccc(Cl)cc5)cc4c32)cc1", "<1 ug/mL"),
    ("CNCc1ccc(-c2ccc3ncc4ccc(=O)n(-c5ccc(C(=O)N6CCOCC6)cc5)c4c3c2)cc1", ">75 ug/mL"),
    ("O=C(NCCCO)c1ccc(-n2c(=O)ccc3cnc4ccc(-c5ccc(Cl)cc5)cc4c32)cc1", "<1 ug/mL"),
    ("O=C(c1ccc(-n2c(=O)ccc3c(Cl)nc4ccc(-c5ccc(Cl)cc5)cc4c32)cc1)N1CCOCC1", "<1 ug/mL"),
    ("O=C(c1ccc(-n2c(=O)ccc3cnc4ccc(-c5ccc(Cl)cc5)cc4c32)cc1)N(C1CCCCC1)C1CC1", "<1.0 ug/mL"),
]

###

# mTOR per record follows
# testedTarget: mTOR (Homo sapiens, UniProt P42345)
# protocolNotes: mTOR activity (no method described)
# Format: biochemical

# smilesText, mTOR
records = [
    ("Cc1cc(N2CCNCC2)c(C#N)cc1-n1c(=O)n(C)c2cnc3ccc(-c4ccc(F)cc4)cc3c21", "0.9306 µM"),
    ("NCCc1ccc(-c2ccc3ncc4ccc(=O)n(-c5ccc(C(=O)NC6CC6)cc5)c4c3c2)cc1", "0.4436 µM"),
    ("COc1cc(C(=O)NCCCN(C)C)ccc1-n1c(=O)ccc2cnc3ccc(-c4ccc(Cl)cc4)cc3c21", "50 µM"),
    ("Cn1c(=O)n(-c2cccc(C#N)c2)c2c3cc(-c4cccc(O)c4)ccc3ncc21", "0.4278 µM"),
    ("CCN(CC)CCCNC(=O)c1ccc(-n2c(=O)ccc3cnc4ccc(-c5ccc(Cl)cc5)cc4c32)c(OC)c1", "11.22 µM"),
    ("CN(C)Cc1ccc(-c2ccc3ncc4c(c3c2)n(-c2cccc(C#N)c2)c(=O)n4C)cc1", "12.45 µM"),
    ("CN(C)Cc1ccc(-c2ccc3ncc4ccc(=O)n(-c5ccc(C(=O)N6CCN(CCO)CC6)cc5)c4c3c2)cc1", "32.08 µM"),
]

###

# protocolNotes: Microsomal stability (rat)
# Type: in vitro ADME
# assayContext: rat microsomes
measuredParameter: Microsomal Stability (rat) T1/2

# smilesText, measuredParameter, observed
data = [
    ("CN(C)Cc1ccc(-c2ccc3ncc4ccc(=O)n(-c5ccc6c(c5)CN(C5CC5)C6=O)c4c3c2)cc1", "Microsomal Stability (rat) T1/2", ">30.0 min"),
    ("CS(=O)(=O)c1ccc(-n2c(=O)ccc3cnc4ccc(-c5ccc(Cl)c(O)c5)cc4c32)cc1", "Microsomal Stability (rat) T1/2", ">30.0 min"),
    ("CS(=O)(=O)c1ccc(-n2c(=O)ccc3cnc4ccc(-c5ccc(N)nc5)cc4c32)cc1", "Microsomal Stability (rat) T1/2", ">30.0 min"),
    ("Cc1cc(=O)n(-c2ccc(C(=O)NC3CC3)cc2)c2c1cnc1ccc(-c3ccc(Cl)cc3)cc12", "Microsomal Stability (rat) T1/2", "19.4 min"),
    ("O=C1Cc2cc(-c3ccc4ncc5ccc(=O)n(-c6ccc(C(=O)N7CCOCC7)cc6)c5c4c3)ccc2N1", "Microsomal Stability (rat) T1/2", "12.2 min"),
    ("O=C(O)c1cccc(-c2ccc3ncc4ccc(=O)n(-c5ccc(C(=O)N6CCOCC6)cc5)c4c3c2)c1", "Microsomal Stability (rat) T1/2", ">30.0 min"),
    ("COC(=O)CN1Cc2cc(-n3c(=O)ccc4cnc5ccc(-c6ccc(Cl)cc6)cc5c43)ccc2C1=O", "Microsomal Stability (rat) T1/2", "<1.0 min"),
]

###

# protocolNotes: Solubility at pH 7.4
# Format: physicochemical

# molecule, limitSign, Sol @ pH 7.4 [ug/mL]
records = [
    ("CN(C)Cc1ccc(-c2ccc3ncc4ccc(=O)n(-c5ccc(C(=O)N6CC7CC6CN7C)cc5)c4c3c2)cc1 (stereo not drawn)", ">", 80.0),
    ("COc1cc(C(=O)NC2CC2)ccc1-n1c(=O)ccc2cnc3ccc(-c4ccc(C5(N)CC5)cc4)cc3c21", "=", 2.2),
    ("CC(N)c1ccc(-c2ccc3ncc4ccc(=O)n(-c5ccc(C(=O)N6CCOCC6)cc5)c4c3c2)cc1 (stereo not drawn)", "=", 58.1),
    ("O=C(NC1COC1)c1ccc(-n2c(=O)ccc3cnc4ccc(-c5ccc(Cl)cc5)cc4c32)cc1", "<", 1),
    ("O=C(NCCCN1CCS(=O)(=O)CC1)c1ccc(-n2c(=O)ccc3cnc4ccc(-c5ccc(Cl)cc5)cc4c32)cc1", "=", 0),
    ("Cc1cc(C(=O)NCCN2CCCC2)ccc1-n1c(=O)ccc2cnc3ccc(-c4ccc(Cl)cc4)cc3c21", "=", 0),
    ("CN(C)CCc1cccc(-c2ccc3ncc4ccc(=O)n(-c5ccc(C(=O)N6CCOCC6)cc5)c4c3c2)c1", ">", 79),
    ("Nc1cccc(-c2ccc3ncc4ccc(=O)n(-c5ccc(C(=O)N6CCOCC6)cc5)c4c3c2)c1", "=", 9.2),
    ("Cc1cc(C(=O)NC2CC2)ccc1-n1c(=O)ccc2cnc3ccc(-c4ccc(Cl)cc4)cc3c21", "=", 0.51),
    ("O=C(NC1CCCCCC1)c1ccc(-n2c(=O)ccc3cnc4ccc(-c5ccc(Cl)cc5)cc4c32)cc1", "<", 1.0),
    ("CN(C)C(=O)c1cccc(-n2c(=O)ccc3cnc4ccc(-c5ccc(N)nc5)cc4c32)c1", ">", 64.0),
    ("O=C(NC1CCN(CCO)CC1)c1ccc(-n2c(=O)ccc3cnc4ccc(-c5ccc(Cl)cc5)cc4c32)cc1", "=", 0),
    ("CC1CC1NC(=O)c1ccc(-n2c(=O)ccc3cnc4ccc(-c5ccc(CN(C)C)cc5)cc4c32)cc1 (stereo not drawn)", ">", 74.00),
    ("Cc1cc(C(=O)NCCN(C)c2ccccc2)ccc1-n1c(=O)ccc2cnc3ccc(-c4ccc(Cl)cc4)cc3c21", "=", 0),
    ("O=C(NC1CC1)c1ccc(-n2c(=O)ccc3cnc4ccc(-c5ccc(F)cc5)cc4c32)cn1", "<", 1),
]
